assay: Caco-2 permeability assay with pH 7.4 buffer or human plasma in both chambers; details: human, Caco-2, pH 7.4, Papp B-A, human plasma in both chambers; corrected for fu in donor
METRIC_NAME: Papp B→A (×10⁻⁶ cm/s)
Hi! Could you send only the number? It should be in ×10⁻⁶ cm/s, unit omitted.

molecule=CC(C)(C)NC(=O)[C@@H]1C[C@@H]2CCCC[C@@H]2CN1C[C@@H](O)[C@H](Cc1ccccc1)NC(=O)[C@H](CC(N)=O)NC(=O)c1ccc2ccccc2n1 reported_result=140
molecule="OC[C@@H](O)[C@@H](O)[C@H](O)[C@H](O)CO [^14C-Mannitol, D-[1-^14C]-mannitol]" reported_result=0.43

Query (molecule): "COC(=O)c1ccccc1-c1c2ccc(=N)cc-2oc2cc(N)ccc12" ; field requested: Papp B→A
14

----------
test system: Caco-2 cell monolayer; experiment: Caco-2 permeability assay with pH 7.4 buffer or human plasma in both chambers; conditions: human plasma; criteria of Table V
METRIC_NAME: Permeability Classification

Use the examples below as a reference point.
molecule="O=C1C(O)=C([C@H]2CC[C@H](c3ccc(Cl)cc3)CC2)C(=O)c2ccccc21 [Atovaquone, atovaquone]" reported_result="High (Papp ≥ 8.15)"
molecule="OC(c1cc(C(F)(F)F)nc2c(C(F)(F)F)cccc12)C1CCCCN1 (stereo not drawn) [Mefloquine, mefloquine]" reported_result="High (Papp ≥ 8.15)"
molecule="Clc1ccc2c(N3CCN(CCCN4CCN(c5ccnc6cc(Cl)ccc56)CC4)CC3)ccnc2c1 [Piperaquine, piperaquine]" reported_result="High (Papp ≥ 8.15)"
molecule="CCN(CC)Cc1cc(Nc2ccnc3cc(Cl)ccc23)ccc1O [Amodiaquine, amodiaquine]" reported_result="High (Papp ≥ 8.15)"
molecule="CCCCN(CCCC)CCC(O)c1cc2c(Cl)cc(Cl)cc2c2cc(C(F)(F)F)ccc12 (stereo not drawn) [Halofantrine, halofantrine]" reported_result="High (Papp ≥ 8.15)"

# next molecule below
Query (molecule): CCN(CC)CCCC(C)Nc1ccnc2cc(Cl)ccc12 (stereo not drawn) [Chloroquine, chloroquine] ; field requested: Permeability Classification
High (Papp ≥ 8.15)

----------
Listed compounds paired with reported Mass balance B-A
tested on: Caco-2 cell monolayer; assay: Caco-2 permeability assay with pH 7.4 buffer or human plasma in both chambers; details: human plasma in both chambers
Hi! Could you send only the number? It should be in %, unit omitted.

Use the examples below as a reference point.
compound="OC(c1cc(C(F)(F)F)nc2c(C(F)(F)F)cccc12)C1CCCCN1 (stereo not shown)" metric_name="Mass balance B-A" measurement_units=% reported_result=86
compound=COC(=O)c1ccccc1-c1c2ccc(=N)cc-2oc2cc(N)ccc12 metric_name="Mass balance B-A" measurement_units=% reported_result=92
compound="CC(C)NCC(O)COc1cccc2ccccc12 (stereo not shown)" metric_name="Mass balance B-A" measurement_units=% reported_result=99
compound="CCCCN(CCCC)CCC(O)c1cc2c(Cl)cc(Cl)cc2c2cc(C(F)(F)F)ccc12 (stereo not shown)" metric_name="Mass balance B-A" measurement_units=% reported_result=87
compound="C[C@H]1O[C@@H](O[C@H]2[C@@H](O)C[C@H](O[C@H]3[C@@H](O)C[C@H](O[C@H]4CC[C@@]5(C)[C@H](CC[C@@H]6[C@@H]5C[C@@H](O)[C@]5(C)[C@@H](C7=CC(=O)OC7)CC[C@]65O)C4)O[C@@H]3C)O[C@@H]2C)C[C@H](O)[C@@H]1O [^3H-Digoxin, [^3H(G)]-digoxin]" metric_name="Mass balance B-A" measurement_units=% reported_result=100

# next compound below
Request: Mass balance B-A, test system Caco-2 cell monolayer, entry "Clc1ccc2c(N3CCN(CCCN4CCN(c5ccnc6cc(Cl)ccc56)CC4)CC3)ccnc2c1"
100
